# zone of inhibition at 500 µg/mL annotations
System: various Staphylococcus aureus strains
Experiment Notes: Disc diffusion, Staphylococcus aureus strain study
Assay type: cell-based
Settings: Staphylococcus aureus, strain Sa_TPS 3134; 500 μg/mL

Solved entries:
Molecular String | Assay Target | zone of inhibition at 500 µg/mL
[C-]#[N+]C=Cc1cc(Br)ccc1O | various Staphylococcus aureus strains | 18 mm
[C-]#[N+]C=Cc1ccc(O)cc1 | various Staphylococcus aureus strains | 14 mm
[C-]#[N+]/C=C/c1ccc(NC(C)=O)cc1/C=C/c1ccccc1 | various Staphylococcus aureus strains | 26 mm

# lookup: zone of inhibition at 500 µg/mL of `[C-]#[N+]/C=C/c1ccc(O)cc1/C=C/c1ccccc1`
26 mm

Now this one: `[C-]#[N+]C=Cc1ccc(O)c(Br)c1`
18 mm
